test: Cmax in CD1 mouse at 5 mg/kg, po; format: ADME, organism-based; set-up: route oral, dose 5 mg/kg; details: in vivo
measurementName: Cmax
Output should be the measured figure followed by the unit it is expressed in.

Query block: Query: Cmax; subject: COc1ccc(-c2c(-c3ccc(C#N)c(F)c3)nc(N3CCC(N)CC3)n(C)c2=O)cc1F.O=S(=O)(O)c1ccccc1 [PULRODEMSTAT BESILATE]
Result block: 360 nM

---

assay: Volume of distribution at steady state in CD1 mouse at 5 mg/kg, iv; type: ADME, organism-based; settings: in vivo, read-out: Vdss
measurementName: Vd
Output should be the measured figure followed by the unit it is expressed in.

Query block: Query: Vd; subject: COc1ccc(-c2c(-c3ccc(C#N)c(F)c3)nc(N3CCC(N)CC3)n(C)c2=O)cc1F.O=S(=O)(O)c1ccccc1 [PULRODEMSTAT BESILATE]
Result block: 7.5 L/kg
